- target.system: UniProtKB D5G3E0
- Sequence (D5G3E0 25-548): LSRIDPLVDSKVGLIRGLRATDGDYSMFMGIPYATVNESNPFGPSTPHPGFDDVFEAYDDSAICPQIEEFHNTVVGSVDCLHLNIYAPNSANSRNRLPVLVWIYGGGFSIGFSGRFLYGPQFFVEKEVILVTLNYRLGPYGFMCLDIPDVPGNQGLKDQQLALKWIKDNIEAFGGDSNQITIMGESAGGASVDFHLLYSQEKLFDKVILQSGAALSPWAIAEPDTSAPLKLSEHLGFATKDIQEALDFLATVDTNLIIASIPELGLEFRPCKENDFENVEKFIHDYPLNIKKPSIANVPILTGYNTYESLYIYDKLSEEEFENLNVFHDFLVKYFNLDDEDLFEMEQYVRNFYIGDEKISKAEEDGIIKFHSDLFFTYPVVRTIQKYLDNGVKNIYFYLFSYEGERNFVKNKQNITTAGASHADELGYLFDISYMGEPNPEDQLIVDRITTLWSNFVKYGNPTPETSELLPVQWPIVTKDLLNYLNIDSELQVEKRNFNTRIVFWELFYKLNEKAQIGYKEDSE
- protocol.description: Differential scanning calorimetry of Ha006a-ligand complexes
- Assay type: binding
- condition.notes: DSC, third transition (Tm3)
measured.metric: ΔHv (van't Hoff enthalpy) (kcal/mol)

compound=COc1cc(OC)c2c(=O)cc(-c3ccc(OC)c(OC)c3)oc2c1 measured_metric="ΔHv (van't Hoff enthalpy)" numeric_result=58800
compound="O=P(Oc1ccccc1)(Oc1ccccc1)Oc1ccccc1 [Triphenyl phosphate, reference compound]" measured_metric="ΔHv (van't Hoff enthalpy)" numeric_result=89500
compound=CN1CCc2cc3c(cc2C(=O)Cc2ccc4c(c2C1)OCO4)OCO3 measured_metric="ΔHv (van't Hoff enthalpy)" numeric_result=40100
compound=O=C(/C=C/C=C/c1ccc2c(c1)OCO2)N1CCCCC1 measured_metric="ΔHv (van't Hoff enthalpy)" numeric_result=40900

###

- target.system: Ha006a (Helicoverpa armigera, UniProt D5G3E0)
- protocol.description: Differential scanning calorimetry of Ha006a-ligand complexes
- Format: binding
- condition.notes: DSC, first transition (Tm1)
measured.metric: ΔHv (van't Hoff enthalpy) (kcal/mol)

compound="O=P(Oc1ccccc1)(Oc1ccccc1)Oc1ccccc1 [Triphenyl phosphate, reference compound]" numeric_result=35900
compound=COc1cc(OC)c2c(=O)cc(-c3ccc(OC)c(OC)c3)oc2c1 numeric_result=34000
compound=O=C(/C=C/C=C/c1ccc2c(c1)OCO2)N1CCCCC1 numeric_result=43300
compound=CN1CCc2cc3c(cc2C(=O)Cc2ccc4c(c2C1)OCO4)OCO3 numeric_result=43200

###

- target.system: Ha006a (Helicoverpa armigera, UniProt D5G3E0)
- Sequence (D5G3E0 25-548): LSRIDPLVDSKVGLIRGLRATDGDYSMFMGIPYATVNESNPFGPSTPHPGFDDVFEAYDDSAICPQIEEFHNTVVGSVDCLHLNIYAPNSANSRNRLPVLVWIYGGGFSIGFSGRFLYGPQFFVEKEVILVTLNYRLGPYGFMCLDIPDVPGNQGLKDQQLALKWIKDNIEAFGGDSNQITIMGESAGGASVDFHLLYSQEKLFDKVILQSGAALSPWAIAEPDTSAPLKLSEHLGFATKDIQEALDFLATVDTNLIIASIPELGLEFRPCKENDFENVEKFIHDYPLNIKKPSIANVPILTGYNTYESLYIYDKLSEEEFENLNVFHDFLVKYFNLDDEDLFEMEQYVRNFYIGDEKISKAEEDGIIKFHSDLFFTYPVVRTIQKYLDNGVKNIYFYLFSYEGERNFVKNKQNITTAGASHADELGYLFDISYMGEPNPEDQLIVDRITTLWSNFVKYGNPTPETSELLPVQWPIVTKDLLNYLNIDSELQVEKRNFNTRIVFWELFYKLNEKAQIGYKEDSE
- protocol.description: Differential scanning calorimetry of Ha006a-ligand complexes
- Type: binding
- condition.notes: DSC, second transition (Tm2)
Attribute: ΔH (molar heat enthalpy)
measured.metric: ΔH (molar heat enthalpy)

compound="O=P(Oc1ccccc1)(Oc1ccccc1)Oc1ccccc1 [Triphenyl phosphate, reference compound]" measured_metric="ΔH (molar heat enthalpy)" result="1.31e+06 kcal/mol"
compound=CN1CCc2cc3c(cc2C(=O)Cc2ccc4c(c2C1)OCO4)OCO3 measured_metric="ΔH (molar heat enthalpy)" result="1.87e+06 kcal/mol"
compound=O=C(/C=C/C=C/c1ccc2c(c1)OCO2)N1CCCCC1 measured_metric="ΔH (molar heat enthalpy)" result="209000 kcal/mol"
compound=COc1cc(OC)c2c(=O)cc(-c3ccc(OC)c(OC)c3)oc2c1 measured_metric="ΔH (molar heat enthalpy)" result="957000 kcal/mol"

###

- target.system: Ha006a (Helicoverpa armigera, UniProt D5G3E0)
- Sequence (D5G3E0 25-548): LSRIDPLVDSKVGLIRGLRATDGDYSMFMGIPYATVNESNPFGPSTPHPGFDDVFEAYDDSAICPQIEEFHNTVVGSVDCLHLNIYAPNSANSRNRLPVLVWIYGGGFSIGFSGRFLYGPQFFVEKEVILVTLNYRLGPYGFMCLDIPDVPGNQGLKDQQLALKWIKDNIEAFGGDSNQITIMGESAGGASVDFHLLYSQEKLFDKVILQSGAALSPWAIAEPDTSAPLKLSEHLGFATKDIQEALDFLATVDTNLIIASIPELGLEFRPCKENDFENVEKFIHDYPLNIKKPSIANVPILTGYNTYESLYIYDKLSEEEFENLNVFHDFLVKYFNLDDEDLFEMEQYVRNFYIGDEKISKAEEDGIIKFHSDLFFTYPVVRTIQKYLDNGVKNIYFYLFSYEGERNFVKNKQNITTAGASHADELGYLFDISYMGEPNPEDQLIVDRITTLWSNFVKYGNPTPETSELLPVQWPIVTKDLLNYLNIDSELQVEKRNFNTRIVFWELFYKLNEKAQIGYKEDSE
- protocol.description: Differential scanning calorimetry of Ha006a-ligand complexes
- Type: binding
- condition.notes: DSC, second transition (Tm2)
Documented ΔHv (van't Hoff enthalpy) across a set of compounds
measured.metric: ΔHv (van't Hoff enthalpy) (kcal/mol)

compound="COc1cc(OC)c2c(=O)cc(-c3ccc(OC)c(OC)c3)oc2c1 [3′,4′,5,7-Tetramethoxyflavone]" target_system="Ha006a (Helicoverpa armigera, UniProt D5G3E0)" numeric_result=35300
compound="CN1CCc2cc3c(cc2C(=O)Cc2ccc4c(c2C1)OCO4)OCO3 [Protopine]" target_system="Ha006a (Helicoverpa armigera, UniProt D5G3E0)" numeric_result=31500
compound="O=C(/C=C/C=C/c1ccc2c(c1)OCO2)N1CCCCC1 [Piperine]" target_system="Ha006a (Helicoverpa armigera, UniProt D5G3E0)" numeric_result=40800
compound="O=P(Oc1ccccc1)(Oc1ccccc1)Oc1ccccc1 [Triphenyl phosphate, reference compound]" target_system="Ha006a (Helicoverpa armigera, UniProt D5G3E0)" numeric_result=66800

###

- target.system: Ha006a (Helicoverpa armigera, UniProt D5G3E0)
- protocol.description: Differential scanning calorimetry of Ha006a-ligand complexes
- Assay type: binding
- condition.notes: DSC, third transition (Tm3)
measured.metric: ΔHv/ΔH

compound=O=C(/C=C/C=C/c1ccc2c(c1)OCO2)N1CCCCC1 numeric_result=0.92
compound=COc1cc(OC)c2c(=O)cc(-c3ccc(OC)c(OC)c3)oc2c1 numeric_result=0.16
compound=CN1CCc2cc3c(cc2C(=O)Cc2ccc4c(c2C1)OCO4)OCO3 numeric_result=0.05
compound="O=P(Oc1ccccc1)(Oc1ccccc1)Oc1ccccc1 [Triphenyl phosphate, reference compound]" numeric_result=0.19

###

In this section, each of the compounds is paired with its reported ΔH (molar heat enthalpy).
- target.system: Ha006a (Helicoverpa armigera)
- protocol.description: Differential scanning calorimetry of Ha006a-ligand complexes
- Assay type: binding
- condition.notes: DSC, third transition (Tm3)
measured.metric: ΔH (molar heat enthalpy) (kcal/mol)

compound=COc1cc(OC)c2c(=O)cc(-c3ccc(OC)c(OC)c3)oc2c1 measured_metric="ΔH (molar heat enthalpy)" numeric_result=358000
compound="O=P(Oc1ccccc1)(Oc1ccccc1)Oc1ccccc1 [Triphenyl phosphate, reference compound]" measured_metric="ΔH (molar heat enthalpy)" numeric_result=472000
compound=O=C(/C=C/C=C/c1ccc2c(c1)OCO2)N1CCCCC1 measured_metric="ΔH (molar heat enthalpy)" numeric_result=44600
compound=CN1CCc2cc3c(cc2C(=O)Cc2ccc4c(c2C1)OCO4)OCO3 measured_metric="ΔH (molar heat enthalpy)" numeric_result=783000
